Test system: Bacillus subtilis No. 10707
Assay: Antibacterial activity, agar dilution method (MIC)
Assay type: cell-based
Conditions: BS: Bacillus subtilis No. 10707, pH 7, read-out: MIC (minimum growth inhibitory concentration)
// classify: if (MIC < 0.05 µg/mL) 1 (yes) else 0 (no)

- compound: "C/C1=C\\C(OC(=O)CNC(=O)OCc2ccccc2)C(=O)/C=C/C=C\\c2csc(n2)C(C)NC(=O)CC2(CC1)[S+]([O-])SC(=O)C2(C)O (stereo not drawn)"
  class label: "0 (no)"
- compound: "C/C1=C\\C(OC(=O)[C@H](C)NC(=O)OCc2ccccc2)C(=O)/C=C/C=C\\c2csc(n2)C(C)NC(=O)CC2(CC1)[S+]([O-])SC(=O)C2(C)O (stereo partly drawn)"
  class label: "1 (yes)"
- compound: "C/C1=C\\C(O)C(=NOCc2ccccc2)/C=C/C=C\\c2csc(n2)C(C)NC(=O)CC2(CC1)[S+]([O-])SC(=O)C2(C)O (stereo not drawn)"
  class label: "1 (yes)"
- compound: "C/C1=C\\C(OC(=O)CNC(=O)CCNC(=O)OCc2ccccc2)C(=O)/C=C/C=C\\c2csc(n2)C(C)NC(=O)CC2(CC1)[S+]([O-])SC(=O)C2(C)O (stereo not drawn)"
  class label: "0 (no)"
- compound: "C/C1=C\\C(OC(=O)CNC(=O)CNC(=O)OCc2ccccc2)C(=O)/C=C/C=C\\c2csc(n2)C(C)NC(=O)CC2(CC1)[S+]([O-])SC(=O)C2(C)O (stereo not drawn)"
  class label: "1 (yes)"

----------
Tested on: Bacillus subtilis No. 10707
Test: Antibacterial activity, agar dilution method (MIC)
Type: cell-based
Settings: BS: Bacillus subtilis No. 10707, pH 7, read-out: MIC (minimum growth inhibitory concentration)
Hi! Just check whether MIC is below 0.04 µg/mL. Below gives 1.0, equal or above gives 0.0.

- compound: "C/C1=C\\C(OC(=O)CNC(=O)[C@H](CO)NC(=O)OCc2ccccc2)C(=O)/C=C/C=C\\c2csc(n2)C(C)NC(=O)CC2(CC1)[S+]([O-])SC(=O)C2(C)O (stereo partly drawn)"
  class label: 1.0
- compound: "COC(C)(C)OC1/C=C(\\C)CCC2(C(C)(O)C(=O)SCc3oc(=O)oc3C)CC(=O)N(C(C)c3nc(cs3)/C=C\\C=C\\C1=O)[S+]2[O-] (stereo not drawn)"
  class label: 0.0
- compound: "CCOC(C)OC1/C=C(\\C)CCC2(C(C)(O)C(=O)SCc3oc(=O)oc3C)CC(=O)N(C(C)c3nc(cs3)/C=C\\C=C\\C1=O)[S+]2[O-] (stereo not drawn)"
  class label: 0.0
- compound: "C/C1=C\\C(OC(=O)C2CCCCC2)C(=O)/C=C/C=C\\c2csc(n2)C(C)NC(=O)CC2(CC1)[S+]([O-])SC(=O)C2(C)O (stereo not drawn)"
  class label: 1.0
- compound: "CCOC(=O)OC1/C=C(\\C)CCC2(CC(=O)NC(C)c3nc(cs3)/C=C\\C=C\\C1=O)[S+]([O-])SC(=O)C2(C)O (stereo not drawn)"
  class label: 0.0
- compound: "CCC(=O)OC1/C=C(\\C)CCC2(CC(=O)NC(C)c3nc(cs3)/C=C\\C=C\\C1=O)[S+]([O-])SC(=O)C2(C)O (stereo not drawn)"
  class label: 0.0
- compound: "CC1=CC(OC(=O)CNC(=O)CNC(=O)c2ccccc2)C(=O)C=CC=Cc2csc(n2)C(C)N2C(=O)CC(C(C)(O)C(=O)SCc3oc(=O)oc3C)(CC1)[S+]2[O-] (stereo not drawn)"
  class label: 0.0
- compound: "CC(=O)OC1(C)C(=O)S[S+]([O-])C12CC/C(C)=C/C(O)C(=O)/C=C/C=C\\c1csc(n1)C(C)NC(=O)C2 (stereo not drawn)"
  class label: 0.0
- compound: "COC1(OC2C=C(C)CCC3(C(C)(O)C(=O)SCc4oc(=O)oc4C)CC(=O)N(C(C)c4nc(cs4)C=CC=CC2=O)[S+]3[O-])CCOCC1 (stereo not drawn)"
  class label: 0.0
- compound: "COC1(OC2/C=C(\\C)CCC3(CC(=O)NC(C)c4nc(cs4)/C=C\\C=C\\C2=O)[S+]([O-])SC(=O)C3(C)O)CCOCC1 (stereo not drawn)"
  class label: 1.0
- compound: "COC1(OC2C=C(C)CCC3(C(C)(O)C(=O)SCc4oc(=O)oc4C)CC(=O)N(C(C)c4nc(cs4)C=CC=CC2=O)[S+]3[O-])CCCCC1 (stereo not drawn)"
  class label: 1.0
- compound: "C/C1=C\\C(OC(=O)CNC(=O)CN(C)C(=O)OCc2ccccc2)C(=O)/C=C/C=C\\c2csc(n2)C(C)NC(=O)CC2(CC1)[S+]([O-])SC(=O)C2(C)O (stereo not drawn)"
  class label: 1.0
